Hello, the source for this data is patent US7829591B2, in case you need it.

# Test system: Staphylococcus aureus (Sta.)
# protocol_text: Antimicrobial activity test with Compounds 1 to 4
# Type: cell-based
# settings: 10 ppm in standard agar medium
readout_kind: Number of Bacteria, Sta. (CFU/petri dish)
Numeric answer only, unit CFU/petri dish assumed.

Ask | Need Number of Bacteria, Sta. of CC(C)=CCC/C(C)=C/Cc1c([C@@H]2CC(=O)c3c(cc(O)c(CC=C(C)C)c3O)O2)ccc(O)c1O [Compound 4] , thanks.
Reply | 7

Ask | Another: CC(C)=CCC/C(C)=C/Cc1c([C@@H]2CC(=O)c3c(O)cc(O)cc3O2)ccc(O)c1O [Compound 1]
Reply | 36

Ask | Try this compound too: CC(C)=CCC/C(C)=C/Cc1cc([C@@H]2CC(=O)c3c(O)cc(O)cc3O2)cc(O)c1O [Compound 2]
Reply | 108

Ask | Input CC(C)=CCC/C(C)=C/Cc1c(O)cc2c(c1O)C(=O)C[C@@H](c1ccc(O)c(O)c1)O2 [Compound 3]
Reply | 0

---

# Tested on: Salmonella enteritidis (S. en; NBRC3313)
# protocol_text: Antimicrobial activity test with Compounds 1 to 4
# Format: cell-based
# settings: 5 ppm in standard agar medium; 0 ppm: >3000 (Table 3), 221 (Table 4)
readout_kind: Number of Bacteria, S. en (CFU/petri dish)
Field: numeric (CFU/petri dish). Do not append units.

Ask | So what's the measured Number of Bacteria, S. en for this one? CC(C)=CCC/C(C)=C/Cc1c(O)cc2c(c1O)C(=O)C[C@@H](c1ccc(O)c(O)c1)O2
Reply | 296

Ask | Query CC(C)=CCC/C(C)=C/Cc1c([C@@H]2CC(=O)c3c(cc(O)c(CC=C(C)C)c3O)O2)ccc(O)c1O next
Reply | 249

---

# Test system: breast cancer cells (MCF-7)
# protocol_text: Breast cancer cell proliferation-inhibition test
# Format: cell-based
# settings: 20 μM sample, 0.1 nM estradiol, on 0-day incubation; Control 1 at 0 day = 1
Hi there, I'd appreciate the recorded Relative Value of Living Cells for every entry that follows.
Please state the value as a number alone, without comment.

Ask | Fill in the blank: the reported Relative Value of Living Cells of O=C1C[C@@H](c2ccc(O)c(O)c2)Oc2cc(O)cc(O)c21 [Eriodictyol, eriodictyol, reference compound] is ____.
Reply | 1.01

Ask | # iterate: CC(C)=CCC/C(C)=C/Cc1c([C@@H]2CC(=O)c3c(O)cc(O)cc3O2)ccc(O)c1O
Reply | 1.01

Ask | Try this compound next: CC(C)=CCC/C(C)=C/Cc1cc([C@@H]2CC(=O)c3c(O)cc(O)cc3O2)cc(O)c1O
Reply | 1.00

Ask | Moving on to the next compound: CC(C)=CCC/C(C)=C/Cc1c(O)cc2c(c1O)C(=O)C[C@@H](c1ccc(O)c(O)c1)O2
Reply | 0.96

Ask | And the next one, CC(C)=CCC/C(C)=C/Cc1c([C@@H]2CC(=O)c3c(cc(O)c(CC=C(C)C)c3O)O2)ccc(O)c1O ?
Reply | 0.98

---

Would you mind telling me the reported Number of Bacteria, Sta. of each entry?
# Test system: Staphylococcus aureus (Sta.)
# protocol_text: Antimicrobial activity test with Compounds 1 to 4
# Type: cell-based
# settings: 5 ppm in standard agar medium; 0 ppm: 470 (Table 3), 202 (Table 4)

Ask | Entry CC(C)=CCC/C(C)=C/Cc1cc([C@@H]2CC(=O)c3c(O)cc(O)cc3O2)cc(O)c1O has what Number of Bacteria, Sta.?
Reply | 395 CFU/petri dish

Ask | Now the same for CC(C)=CCC/C(C)=C/Cc1c([C@@H]2CC(=O)c3c(cc(O)c(CC=C(C)C)c3O)O2)ccc(O)c1O
Reply | 26 CFU/petri dish

Ask | // next record CC(C)=CCC/C(C)=C/Cc1c(O)cc2c(c1O)C(=O)C[C@@H](c1ccc(O)c(O)c1)O2
Reply | 22 CFU/petri dish

Ask | And what about the molecule CC(C)=CCC/C(C)=C/Cc1c([C@@H]2CC(=O)c3c(O)cc(O)cc3O2)ccc(O)c1O ?
Reply | 344 CFU/petri dish
